System: P. aeruginosa ATCC 35151
assayRemarks: microbe, parasite or virus in culture
Format: cell-based
assaySetup: Pseudomonas aeruginosa, ATCC35151, read-out: Minimum inhibitory concentration, P. aeruginosa ATCC 35151
readoutName: MIC

[
  {
    "molecule": "O=C(NCCCN1CCN(C(=O)N[C@@H](C(=O)N[C@H]2Cc3ccc(F)c(C(=O)O)c3OB2O)c2cc(F)c(O)c(O)c2Cl)C(=O)C1=O)c1ccnc(F)c1F [Example 300]",
    "assayedSystem": "P. aeruginosa ATCC 35151",
    "observed": "< 1 µg/mL"
  },
  {
    "molecule": "CN(CCN1CCN(C(=O)N[C@@H](C(=O)N[C@H]2Cc3ccc(F)c(C(=O)O)c3OB2O)c2cc(F)c(O)c(O)c2Cl)C(=O)C1=O)Cc1cccc(C(N)=O)c1 [Example 225]",
    "assayedSystem": "P. aeruginosa ATCC 35151",
    "observed": "< 1 µg/mL"
  },
  {
    "molecule": "O=C(O)c1c(F)ccc2c1OB(O)[C@@H](NC(=O)C(NC(=O)N1CCN(C3CCN(C(=O)c4cccc(O)c4)CC3)C(=O)C1=O)c1cc(F)c(O)c(O)c1Cl)C2 (some centres unmarked) [Example 293]",
    "assayedSystem": "P. aeruginosa ATCC 35151",
    "observed": "< 1 µg/mL"
  },
  {
    "molecule": "O=C(NCCCN1CCN(C(=O)NC(C(=O)N[C@H]2Cc3ccc(F)c(C(=O)O)c3OB2O)c2cc(F)c(O)c(O)c2Cl)C(=O)C1=O)Nc1cccnc1 (some centres unmarked) [Example 213]",
    "assayedSystem": "P. aeruginosa ATCC 35151",
    "observed": "< 1 µg/mL"
  },
  {
    "molecule": "O=C(NCCCN1CCN(C(=O)NC(C(=O)N[C@H]2Cc3ccc(F)c(C(=O)O)c3OB2O)c2cc(F)c(O)c(O)c2Cl)C1=O)c1ccc(O)cc1 (some centres unmarked) [Example 280]",
    "assayedSystem": "P. aeruginosa ATCC 35151",
    "observed": "< 1 µg/mL"
  }
]

###

Known MIC of a selection of compounds
Tested on: N. gonorrhoeae WHO K
assayRemarks: Liquid broth MIC in Fastidious broth
assaySetup: Neisseria gonorrhoeae, read-out: Minimum Inhibitory Concentration (MIC), N. gonorrhoeae WHO K
readoutName: MIC

[
  {
    "compound": "Cn1cccc(C(=O)N[C@H](C(=O)N[C@H]2Cc3cccc(C(=O)O)c3OB2O)c2ccc(P(=O)(O)O)cc2)c1=O (single isomer, unassigned)",
    "readoutName": "MIC",
    "observed": "16 to 32 µg/mL"
  },
  {
    "compound": "CCN1CCN(C(=O)NC(C(=O)N[C@H]2Cc3cccc(C(=O)O)c3OB2O)c2ccc(P(=O)(O)O)cc2F)C(=O)C1=O (stereo partly drawn)",
    "readoutName": "MIC",
    "observed": "< 1 µg/mL"
  },
  {
    "compound": "O=C(O)c1cccc2c1OB(O)[C@@H](NC(=O)C(NC(=O)N1CCCC1=O)c1ccc(P(=O)(O)O)cc1)C2 (stereo partly drawn)",
    "readoutName": "MIC",
    "observed": "4 to 8 µg/mL"
  },
  {
    "compound": "CS(=O)(=O)N1CCN(C(=O)NC(C(=O)N[C@H]2Cc3cccc(C(=O)O)c3OB2O)c2ccc(P(=O)(O)O)c(O)c2)C1=O (stereo partly drawn)",
    "readoutName": "MIC",
    "observed": "< 1 µg/mL"
  },
  {
    "compound": "CCN1CCN(C(=O)NC(C(=O)N[C@H]2Cc3cccc(C(=O)O)c3OB2O)c2cccc(CP(=O)(O)O)c2)C(=O)C1=O (stereo partly drawn)",
    "readoutName": "MIC",
    "observed": "4 to 8 µg/mL"
  },
  {
    "compound": "CS(=O)(=O)N1CCN(C(=O)N[C@@H](C(=O)N[C@H]2Cc3ccc(F)c(C(=O)O)c3OB2O)c2ccc(P(=O)(O)O)c(F)c2)C1=O (single isomer, unassigned)",
    "readoutName": "MIC",
    "observed": "< 1 µg/mL"
  }
]

###

Tested on: P. aeruginosa ATCC 27853
assayRemarks: microbe, parasite or virus in culture
Type: cell-based
assaySetup: Pseudomonas aeruginosa, ATCC27853, read-out: Minimum inhibitory concentration, P. aeruginosa ATCC 27853
Reported MIC values for a set of compounds

[
  {
    "compound": "O=C(NCCCN1CCN(C(=O)N[C@@H](C(=O)N[C@H]2Cc3ccc(F)c(C(=O)O)c3OB2O)c2cc(F)c(O)c(O)c2Cl)C(=O)C1=O)c1ccc(O)cc1F (racemic)",
    "assayedSystem": "P. aeruginosa ATCC 27853",
    "MIC": "8 to 16 µg/mL"
  },
  {
    "compound": "O=C(NCCN1CCN(C(=O)N[C@@H](C(=O)N[C@H]2Cc3ccc(F)c(C(=O)O)c3OB2O)c2cc(F)c(O)c(O)c2Cl)C(=O)C1=O)Nc1cccnc1",
    "assayedSystem": "P. aeruginosa ATCC 27853",
    "MIC": "< 1 µg/mL"
  },
  {
    "compound": "CS(=O)(=O)N1CCN(C(=O)N[C@@H](C(=O)N[C@H]2Cc3cccc(C(=O)O)c3OB2O)c2ccc(P(=O)(O)O)cc2)C1=O (single isomer, unassigned)",
    "assayedSystem": "P. aeruginosa ATCC 27853",
    "MIC": "32 to 64 µg/mL"
  },
  {
    "compound": "O=C(NCCS(=O)(=O)N1CCN(C(=O)N[C@H](C(=O)N[C@H]2Cc3ccc(F)c(C(=O)O)c3OB2O)c2cc(F)c(O)c(O)c2Cl)C1=O)c1ccc(O)cc1",
    "assayedSystem": "P. aeruginosa ATCC 27853",
    "MIC": "> 128 µg/mL"
  },
  {
    "compound": "O=C(NCCCN1CCN(C(=O)NC(C(=O)N[C@H]2Cc3ccc(F)c(C(=O)O)c3OB2O)c2cc(F)c(O)c(O)c2Cl)C(=O)C1=O)c1cc(F)c(F)c(O)c1F (some centres unmarked)",
    "assayedSystem": "P. aeruginosa ATCC 27853",
    "MIC": "2 to 4 µg/mL"
  },
  {
    "compound": "O=C(NCCN1CCN(C(=O)N[C@@H](C(=O)N[C@H]2Cc3ccc(F)c(C(=O)O)c3OB2O)c2cc(F)c(O)c(O)c2Cl)C(=O)C1=O)Nc1ccncc1",
    "assayedSystem": "P. aeruginosa ATCC 27853",
    "MIC": "< 1 µg/mL"
  },
  {
    "compound": "O=C(O)c1c(F)ccc2c1OB(O)[C@@H](NC(=O)[C@H](NC(=O)N1CCN(C3CCN(C(=O)c4cc(O)c(F)c(O)c4)CC3)C1=O)c1cc(F)c(O)c(O)c1Cl)C2 (single isomer, unassigned)",
    "assayedSystem": "P. aeruginosa ATCC 27853",
    "MIC": "< 1 µg/mL"
  },
  {
    "compound": "O=C(NCCCS(=O)(=O)N1CCN(C(=O)NC(C(=O)N[C@H]2Cc3ccc(F)c(C(=O)O)c3OB2O)c2cc(F)c(O)c(O)c2Cl)C1=O)c1ccncc1 (some centres unmarked)",
    "assayedSystem": "P. aeruginosa ATCC 27853",
    "MIC": "2 to 4 µg/mL"
  },
  {
    "compound": "O=C(NCCN1CCN(C(=O)NC(C(=O)N[C@H]2Cc3ccc(F)c(C(=O)O)c3OB2O)c2cc(F)c(O)c(O)c2Cl)C1=O)Nc1cccnc1 (some centres unmarked)",
    "assayedSystem": "P. aeruginosa ATCC 27853",
    "MIC": "< 1 µg/mL"
  },
  {
    "compound": "O=C(O)c1c(F)ccc2c1OB(O)[C@@H](NC(=O)[C@@H](NC(=O)N1CCN(Cc3ccc(O)c(O)c3Cl)C(=O)C1=O)c1cccc(P(=O)(O)O)c1)C2 (single isomer, unassigned)",
    "assayedSystem": "P. aeruginosa ATCC 27853",
    "MIC": "2 to 4 µg/mL"
  },
  {
    "compound": "O=C(N[C@@H](C(=O)N[C@H]1Cc2cccc(C(=O)O)c2OB1O)c1ccc(P(=O)(O)O)cc1)c1ccc(O)c(O)c1Cl",
    "assayedSystem": "P. aeruginosa ATCC 27853",
    "MIC": "2 to 4 µg/mL"
  },
  {
    "compound": "O=C(O)c1c(F)ccc2c1OB(O)[C@@H](NC(=O)[C@H](NC(=O)N1CCN(Cc3ccc(O)c(O)c3Cl)C(=O)C1=O)c1ccc(P(=O)(O)O)c(F)c1F)C2",
    "assayedSystem": "P. aeruginosa ATCC 27853",
    "MIC": "< 1 µg/mL"
  },
  {
    "compound": "O=C(NCCN1CCN(C(=O)NC(C(=O)N[C@H]2Cc3ccc(F)c(C(=O)O)c3OB2O)c2cc(F)c(O)c(O)c2Cl)C(=O)C1=O)Nc1cccc(O)c1 (some centres unmarked)",
    "assayedSystem": "P. aeruginosa ATCC 27853",
    "MIC": "2 to 4 µg/mL"
  },
  {
    "compound": "O=C(O)c1c(F)ccc2c1OB(O)[C@@H](NC(=O)C(NC(=O)N1CCN(C3CCN(C(=O)Nc4cc(O)cc(Cl)c4)CC3)C(=O)C1=O)c1cc(F)c(O)c(O)c1Cl)C2 (some centres unmarked)",
    "assayedSystem": "P. aeruginosa ATCC 27853",
    "MIC": "2 to 4 µg/mL"
  },
  {
    "compound": "O=C(O)c1c(F)ccc2c1OB(O)[C@@H](NC(=O)[C@H](NC(=O)N1CCN(C3CCN(C(=O)Nc4c(F)ccc(O)c4Cl)CC3)C1=O)c1cc(F)c(O)c(O)c1Cl)C2 (single isomer, unassigned)",
    "assayedSystem": "P. aeruginosa ATCC 27853",
    "MIC": "< 1 µg/mL"
  },
  {
    "compound": "O=C(O)c1c(F)ccc2c1OB(O)[C@@H](NC(=O)[C@H](NC(=O)N1CCN(C3CCN(C(=O)Nc4cc(O)ccc4F)CC3)C1=O)c1cc(F)c(O)c(O)c1Cl)C2 (single isomer, unassigned)",
    "assayedSystem": "P. aeruginosa ATCC 27853",
    "MIC": "< 1 µg/mL"
  },
  {
    "compound": "O=C(O)c1c(F)ccc2c1OB(O)[C@@H](NC(=O)C(NC(=O)N1CCN(C3CCN(C(=O)c4ccc(O)cc4O)CC3)C(=O)C1=O)c1cc(F)c(O)c(O)c1Cl)C2 (some centres unmarked)",
    "assayedSystem": "P. aeruginosa ATCC 27853",
    "MIC": "< 1 µg/mL"
  },
  {
    "compound": "O=C(NCCS(=O)(=O)N1CCN(C(=O)N[C@@H](C(=O)N[C@H]2Cc3ccc(F)c(C(=O)O)c3OB2O)c2cc(F)c(O)c(O)c2Cl)C1=O)c1ccc(O)cc1",
    "assayedSystem": "P. aeruginosa ATCC 27853",
    "MIC": "2 to 4 µg/mL"
  },
  {
    "compound": "O=C(O)c1c(F)ccc2c1OB(O)[C@@H](NC(=O)C(NC(=O)N1CCN(Cc3ccc(O)c(O)c3Cl)C(=O)C1=O)c1ccc(P(=O)(O)O)cc1)C2 (some centres unmarked)",
    "assayedSystem": "P. aeruginosa ATCC 27853",
    "MIC": "< 1 µg/mL"
  },
  {
    "compound": "O=C(O)c1c(F)ccc2c1OB(O)[C@@H](NC(=O)[C@@H](NC(=O)N1CCN(Cc3ccc(O)c(O)c3Cl)C(=O)C1=O)c1ccc(P(=O)(O)O)cc1)C2 (single isomer, unassigned)",
    "assayedSystem": "P. aeruginosa ATCC 27853",
    "MIC": "2 to 4 µg/mL"
  }
]
